List of % inhibition of Mal d 1-IgE binding values.
Molecular target: IgE of patient serum 2
Experiment: ELISA inhibition, serum 2 pre-incubated with 1.25 µg/ml inhibitor; competitor: wt Mal d 1 adsorbed on wells
Measured Metric: % inhibition of Mal d 1-IgE binding (%)

INSERT INTO results (binder, reported_measurement) VALUES
  ('mixture of the single wt allergens (wt Bet v 1 and wt Mal d 1) (protein) chain 1: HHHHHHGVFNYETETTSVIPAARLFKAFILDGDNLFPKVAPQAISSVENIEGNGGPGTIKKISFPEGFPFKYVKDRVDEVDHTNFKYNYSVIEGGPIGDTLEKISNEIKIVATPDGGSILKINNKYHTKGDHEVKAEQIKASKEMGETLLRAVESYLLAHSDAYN chain 2: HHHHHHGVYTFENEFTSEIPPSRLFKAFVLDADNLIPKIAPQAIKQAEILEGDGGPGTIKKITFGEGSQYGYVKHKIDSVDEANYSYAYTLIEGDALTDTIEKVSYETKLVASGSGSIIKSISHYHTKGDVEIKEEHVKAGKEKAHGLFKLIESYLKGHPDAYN', 93.9),
  ('mixture of the two mutagenised allergens (mut Bet v 1-SEQ ID NO:6 and mut Mal d 1-SEQ ID NO:2) (protein) chain 1: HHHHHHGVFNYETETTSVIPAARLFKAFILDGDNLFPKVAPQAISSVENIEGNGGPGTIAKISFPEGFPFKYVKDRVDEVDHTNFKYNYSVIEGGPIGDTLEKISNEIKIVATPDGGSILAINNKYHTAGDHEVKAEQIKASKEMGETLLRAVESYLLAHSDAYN chain 2: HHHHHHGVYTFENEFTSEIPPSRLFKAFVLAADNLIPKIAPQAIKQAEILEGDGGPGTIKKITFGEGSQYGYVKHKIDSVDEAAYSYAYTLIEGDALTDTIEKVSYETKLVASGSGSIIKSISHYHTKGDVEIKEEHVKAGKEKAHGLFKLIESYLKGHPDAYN', 42.4),
  ('mutant Bet v 1-Mal d 1 hybrid molecule (SEQ ID NO: 4) (protein) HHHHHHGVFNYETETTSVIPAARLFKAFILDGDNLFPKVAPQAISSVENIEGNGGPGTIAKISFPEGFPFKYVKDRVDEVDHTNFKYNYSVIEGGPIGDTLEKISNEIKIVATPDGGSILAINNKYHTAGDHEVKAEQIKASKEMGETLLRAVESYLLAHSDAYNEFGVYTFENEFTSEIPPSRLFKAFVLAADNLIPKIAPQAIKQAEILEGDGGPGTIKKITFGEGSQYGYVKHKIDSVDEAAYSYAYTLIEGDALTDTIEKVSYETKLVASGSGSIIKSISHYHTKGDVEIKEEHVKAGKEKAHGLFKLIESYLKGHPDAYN', 41.9),
  ('wild-type Bet v 1-Mal d 1 hybrid molecule (SEQ ID NO: 3) (protein) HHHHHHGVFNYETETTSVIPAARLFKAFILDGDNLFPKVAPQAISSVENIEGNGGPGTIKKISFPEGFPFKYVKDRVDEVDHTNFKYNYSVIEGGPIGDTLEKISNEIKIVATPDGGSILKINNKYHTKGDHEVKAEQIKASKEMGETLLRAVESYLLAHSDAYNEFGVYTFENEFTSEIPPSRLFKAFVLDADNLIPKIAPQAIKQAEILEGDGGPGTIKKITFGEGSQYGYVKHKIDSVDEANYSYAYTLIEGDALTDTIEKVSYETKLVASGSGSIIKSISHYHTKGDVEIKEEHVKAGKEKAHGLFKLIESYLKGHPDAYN', 84.5);

Where these numbers come from: patent US20140294878A1
